Taken from the CheMixHub viscosity set.

condition: 313.15 K; 101 kPa
assay_endpoint: viscosity (mPa·s)

                 cpd_smiles  assay_endpoint  result_units  result
0  CCCCCC(=O)[O-].[NH3+]CCO       viscosity         mPa·s   645.8
1       c1ccc(Oc2ccccc2)cc1       viscosity         mPa·s    2.61
2                     CCC#N       viscosity         mPa·s    0.37
3                OCCOCCOCCO       viscosity         mPa·s    19.8
4              CCCCCCCCCCCC       viscosity         mPa·s   1.039
5               CCOC(=O)OCC       viscosity         mPa·s   0.621
6              OCCN(CCO)CCO       viscosity         mPa·s   201.7

====

Recorded viscosity by entry
measurement_protocol: xn = mol fraction of the nth substance listed
condition: 308.15 K; 101 kPa; x2 = 0.55
assay_endpoint: viscosity (mPa·s)

>>> print(df.to_string())
              molecule  result_units  result
0   CCCCCCCCCCO + CCCO         mPa·s   4.547
1    CCCCCCCCCCO + CCO         mPa·s   3.304
2     CCCCCCCCCCO + CO         mPa·s   3.093
3  CCCCCCCCCCO + CCCCO         mPa·s   4.179

====

condition: 298.15 K; 101 kPa
# if measured viscosity < 40 mPa·s: yes (1)  # else: no (0)

>>> print(df.to_string())
                     cpd_smiles  label_class
0      CCCCCC(=O)[O-].[NH3+]CCO       no (0)
1                    OCCOCCOCCO      yes (1)
2  CCn1cc[n+](C)c1.F[B-](F)(F)F      yes (1)
3                  OCCN(CCO)CCO       no (0)
4                         CCC#N      yes (1)

====

measurement_protocol: xn = mol fraction of the nth substance listed
condition: 318.15 K; 101 kPa; x2 = 0.25
Overview of reported viscosity across a group of molecules:
assay_endpoint: viscosity (mPa·s)

              molecule  assay_endpoint  result_units  result
0  CCCCCCCCCCO + CCCCO       viscosity         mPa·s   4.294
1   CCCCCCCCCCO + CCCO       viscosity         mPa·s   4.306
2    CCCCCCCCCCO + CCO       viscosity         mPa·s   3.604
3     CCCCCCCCCCO + CO       viscosity         mPa·s   4.121

====

Parameter viscosity: see the listing below.
condition: 323.15 K; 100 kPa
± gives the uncertainty stated by the source.
assay_endpoint: viscosity

                     cpd_smiles  assay_endpoint              result
0                   CCOC(=O)OCC       viscosity   0.54 ± 0.02 mPa·s
1                    OCCOCCOCCO       viscosity  13.23 ± 0.28 mPa·s
2                 CN1CCN(C)C1=O       viscosity  1.28 ± 0.052 mPa·s
3  CCn1cc[n+](C)c1.F[B-](F)(F)F       viscosity   18.62 ± 1.9 mPa·s

====

viscosity overview
measurement_protocol: xn = mol fraction of the nth substance listed
condition: 298.15 K; 101 kPa; x2 = 0.5
assay_endpoint: viscosity (mPa·s)

              compound  assay_endpoint  result_units  result
0    CCCCCCCCCCO + CCO       viscosity         mPa·s   5.133
1  CCCCCCCCCCO + CCCCO       viscosity         mPa·s   6.127
2   CCCCCCCCCCO + CCCO       viscosity         mPa·s   6.018
3     CCCCCCCCCCO + CO       viscosity         mPa·s   4.554

====

measurement_protocol: xn = mol fraction of the nth substance listed
condition: 298.15 K; 101.33 kPa; x1 = 0.5
Listed compounds paired with reported viscosity
assay_endpoint: viscosity (mPa·s)

                                   compound  assay_endpoint  result
0  CC(C)[C@@H]1CC[C@@H](C)C[C@H]1O + CCCCCCCO       viscosity   27.53
1  CC(C)[C@@H]1CC[C@@H](C)C[C@H]1O + CCC(O)CO       viscosity    88.2
2    CC(C)[C@@H]1CC[C@@H](C)C[C@H]1O + CCCO       viscosity   28.39
3   CC(C)[C@@H]1CC[C@@H](C)C[C@H]1O + CCCCO       viscosity   18.77
4  CC(C)[C@@H]1CC[C@@H](C)C[C@H]1O + CC(O)CO       viscosity   81.72
5  CC(C)[C@@H]1CC[C@@H](C)C[C@H]1O + CCCCCCCCCCO       viscosity   21.24
6  CC(C)[C@@H]1CC[C@@H](C)C[C@H]1O + CCCCCCO       viscosity   22.95
7  CC(C)[C@@H]1CC[C@@H](C)C[C@H]1O + CC(O)CCO       viscosity   140.3
8  CC(C)[C@@H]1CC[C@@H](C)C[C@H]1O + CCCCCCCCCO       viscosity   35.03
9  CC(C)[C@@H]1CC[C@@H](C)C[C@H]1O + CCCCCCCCO       viscosity    13.1

====

Reported values of viscosity for individual entries
measurement_protocol: xn = mol fraction of the nth substance listed
condition: 318.15 K; 101 kPa; x2 = 0.1
assay_endpoint: viscosity (mPa·s)

>>> print(df.to_string())
                compound  result
0       CCCCCCCCCCO + CO   4.899
1      CCCCCCCCCCO + CCO   4.436
2  Cc1ccccc1C + c1ccccc1   0.572
3    CCCCCCCCCCO + CCCCO   4.922
4     CCCCCCCCCCO + CCCO   4.927

====

measurement_protocol: xn = mol fraction of the nth substance listed
condition: 298.15 K; 101 kPa; x2 = 0.35
Some compounds, each annotated with its measured viscosity.
assay_endpoint: viscosity (mPa·s)

In [3]: df
Out[3]:
              compound  assay_endpoint  result
0   CCCCCCCCCCO + CCCO       viscosity   7.534
1    CCCCCCCCCCO + CCO       viscosity   6.845
2     CCCCCCCCCCO + CO       viscosity   6.425
3  CCCCCCCCCCO + CCCCO       viscosity   7.635

====

Item-by-item account of viscosity
measurement_protocol: xn = mol fraction of the nth substance listed
condition: 298.15 K; 101 kPa; x2 = 0.15
assay_endpoint: viscosity (mPa·s)

>>> print(df.to_string())
              compound  result_units  result
0   CCCCCCCCCCO + CCCO         mPa·s   9.562
1     CCCCCCCCCCO + CO         mPa·s   9.096
2  CCCCCCCCCCO + CCCCO         mPa·s   9.731
3    CCCCCCCCCCO + CCO         mPa·s   9.249

====

measurement_protocol: xn = mol fraction of the nth substance listed
condition: 308.15 K; 101 kPa; x2 = 0.7
Output YES for records whose viscosity is lower than 2 mPa·s, NO for records at or above 2 mPa·s.

                compound  label_class
0  Cc1ccccc1C + C1COCCO1          YES
1    CCCCCCCCCCO + CCCCO           NO
2     CCCCCCCCCCO + CCCO           NO
3      CCCCCCCCCCO + CCO           NO

====

measurement_protocol: xn = mol fraction of the nth substance listed
condition: 318.15 K; 101 kPa; x2 = 0.05
viscosity: recorded values
assay_endpoint: viscosity (mPa·s)

In [3]: df
Out[3]:
              compound  assay_endpoint  result
0   CCCCCCCCCCO + CCCO       viscosity    5.14
1     CCCCCCCCCCO + CO       viscosity   5.136
2    CCCCCCCCCCO + CCO       viscosity   4.847
3  CCCCCCCCCCO + CCCCO       viscosity   5.139
